Protocol Conditions: in isopropanol, 298.15 K
Measured Endpoint: solubility (mole fraction)
# output: bare number, no unit

Answer with the recorded solubility (mole fraction) for the compound listed here: COC(=O)[C@H]1[C@H]2C[C@@H]3c4[nH]c5cc(OC)ccc5c4CCN3C[C@H]2C[C@@H](OC(=O)c2cc(OC)c(OC)c(OC)c2)[C@@H]1OC
2.43e-05

----------
Protocol Conditions: in PEG-400, 338.15 K
Measured Endpoint: solubility (mole fraction)

Answer with the recorded solubility (mole fraction) for the compound listed here: COC(=O)[C@H]1[C@H]2C[C@@H]3c4[nH]c5cc(OC)ccc5c4CCN3C[C@H]2C[C@@H](OC(=O)c2cc(OC)c(OC)c(OC)c2)[C@@H]1OC
0.0047
